Measured TGI, listed per entry for reference.
System: MOLT-4 leukemia
Assay: NCI tumour cell line growth inhibition, 48 h
Report as a plain number; the unit µM is understood.

1) O=C1C(=O)c2ccccc2C(O)=C1C(C1=C(O)c2ccccc2C(=O)C1=O)c1ccc(Cl)cc1 | 19.3

Next up:
[Q] Consider the molecule COc1ccc2c(c1)C(=O)CCc1cc(OC)c(OC)c(OC)c1-2 and give its measured TGI.
[A] 35.4

====

System: HL-60(TB) leukemia
Test: NCI tumour cell line growth inhibition, 48 h
Measured TGI, listed per entry for reference.

# example entries with known answers
1. CN(C)Cc1cc(C(F)(F)F)ccc1C(O)(c1ccccc1)c1ccccc1 | 24.7 µM
2. O=C(O)CSCCc1ccccc1 | 1.98 µM
3. O=C(Nc1cccc(O)c1)C(=O)C1C(=O)NC(=S)NC1=O | > 100 µM

Next up:
[Q] Consider the compound CCC(=O)OC[n+]1ccc2c(C)c3[nH]c4ccccc4c3c(C)c2c1 and give its measured TGI.
[A] 6.18 µM
